- procedureText: growth suppression of yeast trafficking mutant, preliminary HTS, modulators of trafficking downstream of Golgi apparatus project, 1536-format plate, OD 615 nm (AID 637); further: test concentration not given here
- condition: yeast transport mutant growth, absorbance 615 nm, 18 h; hits give high values
Measured inhibition accompanies every entry in the list below.
Field format: number, assumed %, no unit text.

Cc1ccc2cc(C(c3nnnn3CC3CCCO3)N3CCCC4(CCCCC4)C3)c(=O)[nH]c2c1 (stereo not given); 0
CCOc1cc(C(=O)NCc2nnc(SCC(=O)OC)n2C)cc(OCC)c1OCC; -2
CCn1c(C(=O)N2CCC(C(=O)NCc3ccc4c(c3)OCO4)CC2)cc2sccc21; 1.64

Name the reported inhibition value associated with the molecule `COc1ccccc1N1CCN(C(=O)c2c(-c3c(Cl)cccc3Cl)noc2C)CC1` 2.46

Name the reported inhibition value associated with the molecule CCOc1ccc(NC(=O)CN(C)CC(=O)NC2CCCc3ccccc32)cc1OCC (stereo not given) 0.33

Name the reported inhibition value associated with the molecule `N#Cc1c(NC(=O)CSc2nnnn2C2CCCC2)sc2c1CCCC2` 0.16
